# targetDesc: Cannabinoid CB2 Receptor (Homo sapiens)
# Construct: expressed in transfected cells
# Sequence (P34972 whole entry): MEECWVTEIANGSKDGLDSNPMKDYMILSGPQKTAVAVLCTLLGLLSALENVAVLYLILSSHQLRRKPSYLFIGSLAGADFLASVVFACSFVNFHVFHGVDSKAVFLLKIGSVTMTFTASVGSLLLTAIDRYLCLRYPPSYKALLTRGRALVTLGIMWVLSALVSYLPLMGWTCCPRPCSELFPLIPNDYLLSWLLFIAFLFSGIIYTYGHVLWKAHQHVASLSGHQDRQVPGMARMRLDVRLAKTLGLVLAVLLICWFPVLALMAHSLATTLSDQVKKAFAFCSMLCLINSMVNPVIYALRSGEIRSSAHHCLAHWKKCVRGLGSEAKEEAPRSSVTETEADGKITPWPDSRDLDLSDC
# procedureText: Binding assay for CB2 agonists or inverse agonists (radioligand competition, membranes of transfected SK-N-MC cells)
# setupConditions: test concentration of 0.2 μM; compounds without an IC50 binding value; read-out: Cannabinoid CB2 Receptor Binding percent inhibition

sampleSmiles: COc1ccc(/C=C2\CN(CC(=O)O)Cc3c(C(=O)N[C@H](C)c4ccccc4)nn(-c4ccc(Cl)cc4Cl)c32)cc1
targetDesc: Cannabinoid CB2 Receptor (Homo sapiens)
inhibition at 0.2 µM [%]: 19
--
sampleSmiles: CC(C)(C)OC(=O)N1C/C(=C\c2ccc(F)cc2)c2c(c(C(=O)N3CCCCC3)nn2-c2ccc(Cl)cc2Cl)C1
targetDesc: Cannabinoid CB2 Receptor (Homo sapiens)
inhibition at 0.2 µM [%]: 28
--
sampleSmiles: C[C@@H](NC(=O)c1nn(-c2ccc(Cl)cc2)c2c1CN(C(=O)OC(C)(C)C)C/C2=C\c1ccc(F)cc1)c1ccccc1
targetDesc: Cannabinoid CB2 Receptor (Homo sapiens)
inhibition at 0.2 µM [%]: 13
--
sampleSmiles: CC(=O)N1C/C(=C\c2ccc(F)cc2)c2c(c(C(=O)NN3CCCCC3)nn2-c2ccc(Cl)cc2)C1
targetDesc: Cannabinoid CB2 Receptor (Homo sapiens)
inhibition at 0.2 µM [%]: 22

###

# targetDesc: Cannabinoid CB2 Receptor (Homo sapiens)
# Construct: expressed in transfected cells
# procedureText: Binding assay for CB2 agonists or inverse agonists (radioligand competition, membranes of transfected SK-N-MC cells)
# setupConditions: read-out: Cannabinoid CB2 Receptor Binding percent inhibition
In this section, each of the compounds is paired with its reported inhibition at 0.2 µM.

compound: CC(NC(=O)c1nn(-c2ccc(Cl)cc2Cl)c2c1CN(C(=O)OCc1ccccc1)C/C2=C\c1ccc(F)cc1)c1ccccn1 (stereo not shown)
inhibition at 0.2 µM: 17%

compound: CCOC(=O)CN1C/C(=C\c2ccc(F)cc2)c2c(c(C(=O)N[C@H](C)c3ccccc3)nn2-c2ccc(Cl)cc2Cl)C1
inhibition at 0.2 µM: 36%

compound: C[C@@H](NC(=O)c1nn(-c2ccc(Cl)cc2Cl)c2c1CN(C(=O)OC(C)(C)C)C/C2=C\c1ccc(F)cc1)c1ccccc1
inhibition at 0.2 µM: 16%

compound: CCOC(=O)CN1C/C(=C\c2ccc(F)cc2)c2c(c(C(=O)N[C@H](C)c3ccccc3)nn2-c2ccc(Cl)cc2)C1
inhibition at 0.2 µM: 17%

compound: C[C@@H](NC(=O)c1nn(-c2ccc(Cl)cc2Cl)c2c1CNC/C2=C\c1ccc(F)cc1)C1CCCCC1
inhibition at 0.2 µM: 31%

compound: COC(=O)N1C/C(=C\c2ccc(F)cc2)c2c(c(C(=O)NN3CCCCC3)nn2-c2ccc(Cl)cc2Cl)C1
inhibition at 0.2 µM: 15%

compound: COc1ccc(/C=C2\CN(S(C)(=O)=O)Cc3c(C(=O)NC(C)c4ccccn4)nn(-c4ccc(Cl)cc4Cl)c32)cc1 (stereo not shown)
inhibition at 0.2 µM: 48%

###

# targetDesc: CB2 receptor (human) (Homo sapiens)
# Construct: expressed in transfected cells
# Sequence (P34972 whole entry): as above
# procedureText: Functional cell-based assay, CB2 receptor mediated change in CRE β-gal expression (adenylate cyclase activity) in SK-N-MC cells
# setupConditions: SK-N-MC cells expressing CRE β-gal and human CB2; forskolin; β-galactosidase activity; varying compound concentrations; read-out: CB2 Receptor Functional Inverse Agonist EC50

compound: CC(C)(C)OC(=O)N1CCc2c(c(C(=O)NC3C4(C)CCC(C4)C3(C)C)nn2C2CCCCC2)C1 (stereo not shown) [Cpd 117]
readoutUnit: nM
EC50: 90
